Please provide measured inhibition at 30 µM for the entries that follow.
biological target: PPI between HIV-1 IN CCD and LEDGF/p75 IBD (Homo sapiens); construct: The IN CCD protein used contained HIV IN residues 50–212 fused with an C-terminal His6-tag; a fusion of LEDGF/p75 residues 347–471 with the N-terminal GST-tag; made in house; host or cells: bacterial expression vectors pET28a (IN CCD) and pGEX-4T-1 (IBD); assay: IN CCD-LEDGF/p75 IBD PPI assay based on Ni-NTA magnetic agarose beads; type: binding; details: at 30 μM for each proton-pump inhibitor; PPI between LEDGF/p75 IBD and IN CCD; read-out: Inhibition (%)
Answers are plain numbers, in %.

For orientation, consider the following solved cases.
1. COc1ccc2nc([S@@+]([O-])Cc3ncc(C)c(OC)c3C)[nH]c2c1
22
2. COc1ccc2[nH]c([S+]([O-])Cc3ncc(C)c(OC)c3C)nc2c1 (stereo not shown)
26.2
3. Cc1c(OCC(F)(F)F)ccnc1C[S+]([O-])c1nc2ccccc2[nH]1 (stereo not shown)
-86.2
4. Cc1c(OCC(F)(F)F)ccnc1C[S@@+]([O-])c1nc2ccccc2[nH]1
75.2
5. COc1ccnc(C[S+]([O-])c2nc3ccc(OC(F)F)cc3[nH]2)c1OC (stereo not shown)
-23.9

Batch lookup, inhibition at 30 µM per entry.
1. COCCCOc1ccnc(C[S+]([O-])c2nc3ccccc3[nH]2)c1C (stereo not shown)
2. COc1ccc2[nH]c([S+]([O-])Cc3ncc(C)c(OC)c3C)nc2n1 (stereo not shown)

Output line:
[14.5, 33.6]
